As shown below, each of these molecules has a reported half-life value.
- Experiment: Half life in Sprague-Dawley rat at 2 mg/kg, iv
- Type: ADME, organism-based
- Set-up: dose 2 mg/kg, route intravenous
- Condition Set: in vivo
Output should be the measured figure followed by the unit it is expressed in.

CNc1ccc2c(COc3ccc(Cl)c(Oc4cc(Cl)cc(C#N)c4)c3)noc2n1: 2 h

Request: Which measured half-life value corresponds to N#Cc1cc(Cl)cc(Oc2cc(OCc3n[nH]c4nc(N)ccc34)cc(F)c2Cl)c1 ?
Result: 4.6 h

Request: Same again, this time with N#Cc1cc(Cl)cc(Oc2cc(OCc3n[nH]c4nc(N)ccc34)ccc2Cl)c1
Result: 3.5 h

Request: Same again, this time with N#Cc1cc(Cl)cc(Oc2cc(OCc3noc4nc(N)ccc34)cc(F)c2Cl)c1
Result: 1.9 h

====

- Test system: Human immunodeficiency virus
- Experiment: Antiviral activity against HIV with reverse transcriptase K103N mutant infected in human MT2 cells assessed as inhibition of viral replication measuring p24 level after 3 days in presence of 10% fetal bovine serum
- Type: functional
- Condition Set: Human immunodeficiency virus 1, MT2, Serum, 72 h; read-out: CIC95
For each record, check the reported IC95: if it is below 0.1 µM write YES, else write NO.

N#Cc1cc(Cl)cc(Oc2cc(OCc3noc4nc(N5CCOCC5)ccc34)ccc2Cl)c1: NO

Request: Lab note: IC95 threshold 0.1 µM. Does this molecule come in strictly under it? N#Cc1cc(Cl)cc(Oc2cc(OCc3n[nH]c4ncccc34)ccc2Cl)c1
Result: YES

Request: Same again, this time with N#Cc1cc(Cl)cc(Oc2cc(OCc3noc4nc(N)ccc34)ccc2Cl)c1
Result: YES

Request: Same again, this time with N#Cc1cc(Cl)cc(Oc2cc(OCc3n[nH]c4ncccc34)cc(F)c2Cl)c1
Result: YES

Request: Same again, this time with N#Cc1cc(Cl)cc(Oc2ccc(Cl)c(OCc3n[nH]c4ncccc34)c2)c1
Result: NO

Request: Same again, this time with N#Cc1cc(Cl)cc(Oc2cc(OCc3n[nH]c4nc(N)ccc34)ccc2Cl)c1
Result: YES

Request: Same again, this time with N#Cc1cc(Cl)cc(Oc2ccc(F)c(OCc3n[nH]c4ncccc34)c2)c1
Result: NO

Request: Same again, this time with N#Cc1cc(Cl)cc(Oc2cc(F)cc(OCc3n[nH]c4nc(N)ccc34)c2)c1
Result: NO

====

- Experiment: Clearance in Beagle dog at 0.5 mg/kg, iv
- Type: ADME, organism-based, Canis lupus familiaris
- Parameters: dose 0.5 mg/kg, route intravenous
- Condition Set: in vivo
As shown below, each of these compounds has a reported clearance value.
Please give a number only; it is taken to be in mL/min/kg.

Request: Which measured clearance value corresponds to N#Cc1cc(Cl)cc(Oc2cc(OCc3n[nH]c4nc(N)ccc34)ccc2Cl)c1 ?
Result: 5.8

Request: Same again, this time with N#Cc1cc(Cl)cc(Oc2cc(OCc3n[nH]c4nc(N)ccc34)cc(F)c2Cl)c1
Result: 4

====

- System Tested: Cytochrome P450 2D6 (Homo sapiens, UniProt P10635)
- Sequence (P10635 whole entry): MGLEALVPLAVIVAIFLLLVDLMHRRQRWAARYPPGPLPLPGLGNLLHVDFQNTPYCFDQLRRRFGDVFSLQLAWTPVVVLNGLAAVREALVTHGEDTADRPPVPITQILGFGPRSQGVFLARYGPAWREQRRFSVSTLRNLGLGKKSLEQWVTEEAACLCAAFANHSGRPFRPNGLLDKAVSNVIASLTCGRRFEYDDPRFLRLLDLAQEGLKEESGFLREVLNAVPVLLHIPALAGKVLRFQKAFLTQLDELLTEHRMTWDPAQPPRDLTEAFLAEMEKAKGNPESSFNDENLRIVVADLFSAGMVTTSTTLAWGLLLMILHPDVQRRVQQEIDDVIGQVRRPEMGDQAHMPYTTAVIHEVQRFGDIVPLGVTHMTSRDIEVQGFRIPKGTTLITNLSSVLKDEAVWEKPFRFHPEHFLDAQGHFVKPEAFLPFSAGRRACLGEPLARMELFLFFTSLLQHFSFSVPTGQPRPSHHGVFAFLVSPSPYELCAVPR
Test Readout: IC50 (µM)
Please give a number only; it is taken to be in µM.

Request: Checklist item: IC50 tested on Cytochrome P450 2D6 (Homo sapiens, UniProt P10635), entry N#Cc1cc(Cl)cc(Oc2cc(OCc3n[nH]c4nc(N)ccc34)cc(F)c2Cl)c1 , value?
Result: 47.4
